Entry source: patent US20110039825A1

Item-by-item account of Dopamine receptor D3, % inhibition
target: human D3 receptor (Homo sapiens); construct: expressed in transfected cells; host or cells: CHO; assay: radioligand binding to dopamine receptor D3 ([3H] Spiperone); details: 10 μM ligand
Sequence (P35462 whole entry): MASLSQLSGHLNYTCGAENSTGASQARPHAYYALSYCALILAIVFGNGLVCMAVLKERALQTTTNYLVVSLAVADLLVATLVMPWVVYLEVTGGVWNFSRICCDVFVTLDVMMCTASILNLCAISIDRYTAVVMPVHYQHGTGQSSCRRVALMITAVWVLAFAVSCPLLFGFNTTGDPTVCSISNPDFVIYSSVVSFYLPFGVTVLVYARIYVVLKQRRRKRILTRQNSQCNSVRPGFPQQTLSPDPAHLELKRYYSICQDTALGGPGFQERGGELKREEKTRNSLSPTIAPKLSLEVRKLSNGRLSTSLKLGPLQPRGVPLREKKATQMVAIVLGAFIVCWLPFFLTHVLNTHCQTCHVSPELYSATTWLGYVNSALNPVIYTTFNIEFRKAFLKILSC
value.kind: Dopamine receptor D3, % inhibition

>>> measured_value("CN1CCc2c(c3ccccc3n2Cc2ccccc2)C1")
"65%"
>>> measured_value("Cc1ccc2c(c1)[C@H]1CN(C)CCC[C@@H]1N2CCc1cccnc1 [1.6.2(10)•3HCl]")
"25%"
>>> measured_value("Cc1ccc2c(c1)[C@H]1CN(C)CCC[C@@H]1N2CCc1ccc(C)nc1 (relative stereo)")
"36%"
>>> measured_value("Cc1ccc2c(c1)[C@@H]1CN(C)CCC[C@@H]1N2CCc1ccc(C)nc1.Cl.Cl.Cl (relative stereo) [1.6.1(2)•3HCl]")
"41%"

---

biological target: human D1 receptor (Homo sapiens); construct: expressed in transfected cells; host or cells: CHO; experiment: radioligand binding to dopamine receptor D1 ([3H] SCH-23390)
Sequence (P21728 whole entry): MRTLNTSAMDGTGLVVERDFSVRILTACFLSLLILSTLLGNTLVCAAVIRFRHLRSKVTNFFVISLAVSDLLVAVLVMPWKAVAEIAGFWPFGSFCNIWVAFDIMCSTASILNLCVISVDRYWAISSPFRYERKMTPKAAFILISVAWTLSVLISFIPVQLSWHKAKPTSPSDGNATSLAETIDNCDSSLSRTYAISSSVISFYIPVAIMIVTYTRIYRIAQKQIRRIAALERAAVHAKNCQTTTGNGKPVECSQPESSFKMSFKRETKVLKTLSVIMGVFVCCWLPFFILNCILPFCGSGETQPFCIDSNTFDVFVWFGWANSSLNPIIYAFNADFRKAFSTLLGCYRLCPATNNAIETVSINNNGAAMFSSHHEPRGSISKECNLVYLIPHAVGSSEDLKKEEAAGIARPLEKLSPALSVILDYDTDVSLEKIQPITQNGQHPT
pIC50: −log10 of the molar value.
value.kind: pIC50

>>> measured_value("Cc1ccc2c(c1)c1c(n2CCc2ccc(C)nc2)CCN(C)C1.Cl.Cl [1.1.2(4-2)•2HCl]")
5.36

---

Biological target: human α1D receptor (Homo sapiens)
Construct: expressed in transfected cells; host or cells: HEK-293
Sequence (P25100 1-572): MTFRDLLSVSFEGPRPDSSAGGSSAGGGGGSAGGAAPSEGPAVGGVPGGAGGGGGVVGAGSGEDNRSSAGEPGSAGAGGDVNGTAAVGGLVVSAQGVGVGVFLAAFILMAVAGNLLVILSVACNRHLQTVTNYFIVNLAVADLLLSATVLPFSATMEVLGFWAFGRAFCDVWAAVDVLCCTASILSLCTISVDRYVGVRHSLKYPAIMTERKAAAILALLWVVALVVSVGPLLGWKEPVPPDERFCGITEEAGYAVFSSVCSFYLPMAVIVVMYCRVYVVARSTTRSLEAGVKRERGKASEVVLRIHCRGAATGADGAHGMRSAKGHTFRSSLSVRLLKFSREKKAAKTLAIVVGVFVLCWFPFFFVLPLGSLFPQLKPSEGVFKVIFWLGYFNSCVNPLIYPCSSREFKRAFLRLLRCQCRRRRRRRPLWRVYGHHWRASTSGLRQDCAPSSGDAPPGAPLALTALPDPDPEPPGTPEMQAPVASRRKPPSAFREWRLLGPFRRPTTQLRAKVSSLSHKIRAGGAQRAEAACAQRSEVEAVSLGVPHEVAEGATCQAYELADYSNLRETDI
Test: radioligand binding to adrenergic receptor α1D ([3H] Prazosin)
Settings: 10 μM ligand
Item-by-item account of α-Adrenoceptor α1D, % inhibition
value.kind: α-Adrenoceptor α1D, % inhibition (%)

>>> measured_value("Cc1ccc2c(c1)c1c(n2CCc2cccnc2)CCCN(C)C1.Cl.Cl [1.2.2(3-2)•2HCl]")
60
>>> measured_value("Cc1ccc2c(c1)[C@H]1CN(C)CCC[C@@H]1N2CCc1ccc(C)nc1 (relative stereo)")
90
>>> measured_value("Cc1ccc2c(c1)[C@H]1CN(C)CCC[C@@H]1N2CCc1cccnc1 [1.6.2(10)•3HCl]")
86
>>> measured_value("Cc1ccc(S(=O)(=O)n2c3c(c4cc(C)ccc42)CN(C)CCC3)cc1.Cl [1.8.1(3)•HCl]")
55
>>> measured_value("Cc1ccc2c(c1)[C@@H]1CN(C)CCC[C@@H]1N2CCc1ccc(C)nc1.Cl.Cl.Cl (relative stereo) [1.6.1(2)•3HCl]")
87

---

biological target: recombinant human 5-HT2B receptor (Homo sapiens); construct: expressed in transfected cells; host or cells: CHO-K1; assay: radioligand binding to serotonin receptor 5-HT2B ([3H] Lysergic acid diethylamide)
value.kind: Ki (nM)

>>> measured_value("Cc1ccc2c(c1)c1c(n2CCc2ccccc2)CCN(C)C1.Cl [1.1.2(1-2)•HCl]")
10.6

---

target: recombinant human 5-HT2B receptor (Homo sapiens, UniProt P41595); construct: expressed in transfected cells; host or cells: CHO-K1; experiment: radioligand binding to serotonin receptor 5-HT2B ([3H] Lysergic acid diethylamide); details: 10 μM ligand
Sequence (P41595 whole entry): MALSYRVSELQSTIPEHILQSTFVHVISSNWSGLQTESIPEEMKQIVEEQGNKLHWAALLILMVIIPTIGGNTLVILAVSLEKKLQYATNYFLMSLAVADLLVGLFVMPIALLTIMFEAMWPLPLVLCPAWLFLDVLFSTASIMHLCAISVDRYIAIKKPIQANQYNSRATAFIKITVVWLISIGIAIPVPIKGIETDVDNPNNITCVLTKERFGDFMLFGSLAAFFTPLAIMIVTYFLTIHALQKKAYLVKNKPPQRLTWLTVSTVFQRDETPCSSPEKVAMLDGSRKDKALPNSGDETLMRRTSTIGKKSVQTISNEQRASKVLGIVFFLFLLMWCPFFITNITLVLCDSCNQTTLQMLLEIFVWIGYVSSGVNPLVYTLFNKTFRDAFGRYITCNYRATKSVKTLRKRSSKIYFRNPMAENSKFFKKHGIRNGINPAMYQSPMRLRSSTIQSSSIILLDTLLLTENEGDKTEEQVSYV
Structures can show the parent of a compound that is named as a salt.
value.kind: 5-HT2B % inhibition (%)

>>> measured_value("Cc1ccc2c(c1)c1c(n2CCc2ccccc2)CCCN(C)C1 [1.2.2(1-2)•HCl]")
84
>>> measured_value("CN1CCc2c(c3ccccc3n2Cc2ccccc2)C1.Cl [1.9(1)•HCl]")
99
>>> measured_value("CN1CCc2c(c3cc(F)ccc3n2CCc2ccccc2)C1.Cl [1.1.2(1-6)•HCl]")
85
>>> measured_value("Cc1ccc2c(c1)c1c(n2CCc2ccccn2)CCCN(C)C1")
10
>>> measured_value("CN1CCc2c(c3cc(F)ccc3n2C#Cc2ccccc2)C1")
92
>>> measured_value("Cc1ccc2c(c1)c1c(n2CCc2ccccc2)CCN(C)C1.Cl [1.1.2(1-2)•HCl]")
100
>>> measured_value("CN1CCc2c(c3cc(F)ccc3n2CC(O)c2ccccc2)C1 (centres unmarked)")
50
>>> measured_value("Cc1ccc2c(c1)c1c(n2CC(O)c2ccccc2)CCN(C)C1 (centres unmarked)")
79

---

biological target: recombinant human 5-HT2B receptor (Homo sapiens, UniProt P41595); construct: expressed in transfected cells; host or cells: CHO-K1; assay: radioligand binding to serotonin receptor 5-HT2B ([3H] Lysergic acid diethylamide)
Each entry gets n if its nH 5-HT2B stays under 0.8, and y if its nH 5-HT2B is 0.8 or above.

>>> group("CN1CCc2c(c3ccccc3n2Cc2ccccc2)C1.Cl [1.9(1)•HCl]")
"y"
>>> group("Cc1ccc2c(c1)c1c(n2CCc2ccccn2)CCN(C)C1.Cl.Cl [1.1.2(2-3)•2HCl]")
"y"
>>> group("Cc1ccc2c(c1)c1c(n2CCc2ccccc2)CCN(C)C1.Cl [1.1.2(1-2)•HCl]")
"y"
>>> group("CN1CCc2c(c3ccccc3n2Cc2ccccc2)C1 [1.9(1)•½NDSA]")
"n"

---

Item-by-item account of pIC50
Biological target: human α2A receptor (Homo sapiens, UniProt P08913)
Sequence (P08913 1-465): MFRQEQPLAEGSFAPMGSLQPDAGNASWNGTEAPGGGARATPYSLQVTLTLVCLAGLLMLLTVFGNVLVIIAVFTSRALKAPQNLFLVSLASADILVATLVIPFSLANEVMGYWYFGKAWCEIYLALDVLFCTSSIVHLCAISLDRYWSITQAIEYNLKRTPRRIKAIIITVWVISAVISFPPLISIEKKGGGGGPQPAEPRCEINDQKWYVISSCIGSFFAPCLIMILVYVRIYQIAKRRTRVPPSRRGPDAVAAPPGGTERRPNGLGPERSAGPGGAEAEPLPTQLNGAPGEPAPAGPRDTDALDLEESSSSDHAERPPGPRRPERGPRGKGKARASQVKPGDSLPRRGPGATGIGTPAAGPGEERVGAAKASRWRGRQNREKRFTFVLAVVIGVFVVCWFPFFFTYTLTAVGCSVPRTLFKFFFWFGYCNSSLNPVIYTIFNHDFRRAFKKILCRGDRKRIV
pIC50: −log10 of the molar value.
value.kind: pIC50

>>> measured_value("Cc1ccc2c(c1)c1c(n2CCc2ccc(C)nc2)CCN(C)C1.Cl.Cl [1.1.2(4-2)•2HCl]")
6.54
>>> measured_value("Cc1ccc2c(c1)c1c(n2CCc2ccccn2)CCN(C)C1.Cl.Cl [1.1.2(2-3)•2HCl]")
6.89
>>> measured_value("CN1CCc2c(c3ccccc3n2Cc2ccccc2)C1")
6.91

---

Item-by-item account of pIC50
target: human H1 receptor (Homo sapiens)
Sequence (P35367 whole entry): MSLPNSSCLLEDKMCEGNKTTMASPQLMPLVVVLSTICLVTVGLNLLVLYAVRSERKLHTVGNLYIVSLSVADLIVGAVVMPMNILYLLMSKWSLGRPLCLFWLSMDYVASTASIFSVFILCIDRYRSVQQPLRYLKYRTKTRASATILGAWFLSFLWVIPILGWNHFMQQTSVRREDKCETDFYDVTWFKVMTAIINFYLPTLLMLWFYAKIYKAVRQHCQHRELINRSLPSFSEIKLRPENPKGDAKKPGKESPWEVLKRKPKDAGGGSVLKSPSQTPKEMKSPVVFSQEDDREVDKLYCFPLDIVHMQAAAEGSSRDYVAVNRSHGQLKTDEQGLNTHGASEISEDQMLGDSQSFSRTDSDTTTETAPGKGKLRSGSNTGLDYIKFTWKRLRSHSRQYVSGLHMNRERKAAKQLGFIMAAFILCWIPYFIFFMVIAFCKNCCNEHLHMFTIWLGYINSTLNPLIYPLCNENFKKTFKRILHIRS
pIC50: −log10 of the molar value.
value.kind: pIC50

>>> measured_value("Cc1ccc2c(c1)c1c(n2CCc2ccc(C)nc2)CCN(C)C1.Cl.Cl [1.1.2(4-2)•2HCl]")
8.37
>>> measured_value("CN1CCc2c(c3ccccc3n2Cc2ccccc2)C1")
8.40

---

Biological target: adrenergic receptor α1B (Rattus norvegicus, UniProt P15823)
Sequence (P15823 1-515): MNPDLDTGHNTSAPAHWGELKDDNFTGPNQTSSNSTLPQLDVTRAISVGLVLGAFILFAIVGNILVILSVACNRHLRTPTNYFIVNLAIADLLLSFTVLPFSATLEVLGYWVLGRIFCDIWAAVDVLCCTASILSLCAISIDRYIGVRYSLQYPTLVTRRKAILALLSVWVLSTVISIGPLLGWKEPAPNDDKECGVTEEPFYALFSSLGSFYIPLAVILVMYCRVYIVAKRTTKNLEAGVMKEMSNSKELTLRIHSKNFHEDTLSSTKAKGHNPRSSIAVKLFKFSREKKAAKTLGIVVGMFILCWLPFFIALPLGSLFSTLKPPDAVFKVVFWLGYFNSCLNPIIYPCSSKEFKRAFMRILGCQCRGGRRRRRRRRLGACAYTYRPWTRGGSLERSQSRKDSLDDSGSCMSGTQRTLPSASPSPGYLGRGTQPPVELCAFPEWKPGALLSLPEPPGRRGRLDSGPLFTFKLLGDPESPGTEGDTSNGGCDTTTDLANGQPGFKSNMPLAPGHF
Item-by-item account of IC50
value.kind: IC50 (nM)

>>> measured_value("CN1CCc2c(c3ccccc3n2Cc2ccccc2)C1")
1580
>>> measured_value("Cc1ccc2c(c1)c1c(n2CCc2ccc(C)nc2)CCN(C)C1.Cl.Cl [1.1.2(4-2)•2HCl]")
87
>>> measured_value("Cc1ccc2c(c1)c1c(n2CCc2ccccn2)CCN(C)C1.Cl.Cl [1.1.2(2-3)•2HCl]")
47
